tested on: K562; experiment: Cytotoxicity against human K562 cells; type: functional, cell-based
assayMetric: IC50 (µM)

cpdSmiles	u	observedValue
C=C1C(=O)[C@]23C[C@H]1C[C@H](OC(C)=O)[C@H]2[C@]1(C)[C@@H](OC(C)=O)C[C@H](O)C(C)(C)[C@H]1[C@@H](OC(C)=O)[C@@H]3OC(C)=O	µM	2.39
C=C1C(=O)[C@]23C[C@H]1C[C@H](OC(C)=O)[C@H]2[C@]1(C)[C@@H](OC(C)=O)C[C@H](O)C(C)(C)[C@H]1[C@@H](O)[C@@H]3OC(C)=O	µM	4.11
C=C1C(=O)[C@]23C[C@H]1C[C@H](OC(C)=O)[C@H]2[C@]1(C)[C@@H](OC(C)=O)C[C@H](O)C(C)(C)[C@H]1C(=O)[C@@H]3OC(C)=O	µM	1.05
